Each recorded value in this set is attributed to patent US10221163B2.

target: IMP-1 (Serratia marcescens, UniProt P52699); experiment: biochemical; assay type: biochemical; conditions: fluorescence assay, CCF2-FA substrate, 2 pM enzyme, 2 hours at 25° C.; read-out: IMP-1 IC50
Sequence (P52699 whole entry, looked up, species assumed): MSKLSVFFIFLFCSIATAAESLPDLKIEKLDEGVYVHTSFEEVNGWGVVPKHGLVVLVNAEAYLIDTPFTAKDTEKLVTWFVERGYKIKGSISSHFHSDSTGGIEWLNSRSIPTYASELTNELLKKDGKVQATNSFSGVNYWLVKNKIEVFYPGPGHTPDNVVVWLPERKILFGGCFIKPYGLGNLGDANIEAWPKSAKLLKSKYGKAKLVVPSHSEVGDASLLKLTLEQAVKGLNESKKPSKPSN
READOUT: pIC50
Keep in mind that pIC50 stands for -log10 of concentration in molar terms.

Request - read-out pIC50 | tested on IMP-1 (Serratia marcescens, UniProt P52699) | molecule `COc1ccnc(CNS(=O)(=O)c2ccc(-c3cccc4sc(N)nc34)c(-c3nnn[nH]3)c2S(N)(=O)=O)n1`
9.37

Request - read-out pIC50 | tested on IMP-1 (Serratia marcescens, UniProt P52699) | molecule CN1CCC(NS(=O)(=O)c2ccc(-c3cccc4sc(N)nc34)c(-c3nnn[nH]3)c2S(N)(=O)=O)C1 (stereo not drawn)
9.53

Request - read-out pIC50 | tested on IMP-1 (Serratia marcescens, UniProt P52699) | molecule Nc1nc2c(-c3ccc(S(=O)(=O)NCC4CNCCO4)c(S(N)(=O)=O)c3-c3nnn[nH]3)cccc2s1.O=C(O)C(F)(F)F (stereo not drawn) [Example 112, 2,2,2-trifluoroacetate]
9.50

* * *

system: Pseudomonas aeruginosa MB9798 vs MB9799; conditions: ratio MITC95 PA_9798/MITC95 PA_9799
So basically, if Efflux ratio comes in under 2 it's Met, and if it's 2 or more it's Not met.

Item NCCNS(=O)(=O)c1ccc(C2CCC[C@H](N)C2)c(-c2nn[nH]n2)c1S(N)(=O)=O (stereo partly shown) [Example 342] : Efflux ratio beneath 2, strictly?
Not met

Item Nc1nc2c(-c3ccc(S(=O)(=O)NCC4(F)CNC4)c(S(N)(=O)=O)c3-c3nnn[nH]3)cccc2s1.O=CO [Example 91] : Efflux ratio beneath 2, strictly?
Met

Item Nc1nc(-c2cccc(-c3ccc(S(=O)(=O)N[C@@H]4CCNC4)c(S(N)(=O)=O)c3-c3nn[nH]n3)c2)n[nH]1 [Example 231] : Efflux ratio beneath 2, strictly?
Met

Item Nc1nc2c(-c3ccc(S(=O)(=O)N[C@H]4CCNC4)c(S(N)(=O)=O)c3-c3nnn[nH]3)cccc2s1 [Example 60] : Efflux ratio beneath 2, strictly?
Met

Item Nc1nc2c(-c3ccc(S(=O)(=O)N[C@@H]4CNC[C@@H]4N)c(S(N)(=O)=O)c3-c3nn[nH]n3)cccc2[nH]1 [Example 240] : Efflux ratio beneath 2, strictly?
Met

Item NCCOCCNS(=O)(=O)c1ccc(-c2cccc3sc(N)nc23)c(-c2nnn[nH]2)c1S(N)(=O)=O [Example 203] : Efflux ratio beneath 2, strictly?
Met

Item Nc1nc2cccc(-c3ccc(S(=O)(=O)N4CCNCC4)c(S(N)(=O)=O)c3-c3nn[nH]n3)c2[nH]1 [Example 157] : Efflux ratio beneath 2, strictly?
Not met

Item CN(C)C1CN(S(=O)(=O)c2ccc(-c3cccc4sc(N)nc34)c(-c3nnn[nH]3)c2S(N)(=O)=O)C1 [Example 39] : Efflux ratio beneath 2, strictly?
Not met

Item CN1CC(N(C)S(=O)(=O)c2ccc(-c3cccc4sc(N)nc34)c(-c3nnn[nH]3)c2S(N)(=O)=O)C1.O=C(O)C(F)(F)F [Example 107] : Efflux ratio beneath 2, strictly?
Not met

Item Nc1nc2c(-c3ccc(S(=O)(=O)N[C@@H]4CN[C@H](CO)C4)c(S(N)(=O)=O)c3-c3nnn[nH]3)cccc2[nH]1 [Example 175] : Efflux ratio beneath 2, strictly?
Met

Item NCCNS(=O)(=O)c1ccc(-c2cccc3sc(N)nc23)c(-c2nn[nH]n2)c1S(N)(=O)=O [Example 145] : Efflux ratio beneath 2, strictly?
Met

Item Nc1nc2c(-c3ccc(S(=O)(=O)NC4CCNCC4)c(S(N)(=O)=O)c3-c3nn[nH]n3)cccc2[nH]1 [Example 260] : Efflux ratio beneath 2, strictly?
Met

Item Nc1nc2cccc(-c3ccc(S(N)(=O)=O)c(S(N)(=O)=O)c3-c3nn[nH]n3)c2[nH]1 [Example 1] : Efflux ratio beneath 2, strictly?
Met

Item CNS(=O)(=O)c1ccc(-c2cccc3sc(N)nc23)c(-c2nn[nH]n2)c1S(N)(=O)=O [Example 152] : Efflux ratio beneath 2, strictly?
Not met

Item Nc1nc2c(-c3ccc(S(=O)(=O)N4CCC(F)(F)C4)c(S(N)(=O)=O)c3-c3nnn[nH]3)cccc2s1 [Example 43] : Efflux ratio beneath 2, strictly?
Not met

Item Cc1ccc(-c2ccc(S(N)(=O)=O)c(S(N)(=O)=O)c2-c2nn[nH]n2)c2nc(N)sc12 [Example 6] : Efflux ratio beneath 2, strictly?
Met

Item CN(C)CCNS(=O)(=O)c1ccc(-c2cccc3sc(N)nc23)c(-c2nnn[nH]2)c1S(N)(=O)=O [Example 22] : Efflux ratio beneath 2, strictly?
Met

Item Nc1ccc2cccc(-c3ccc(S(=O)(=O)N[C@H]4CNC[C@H]4N)c(S(N)(=O)=O)c3-c3nn[nH]n3)c2n1 [Example 324] : Efflux ratio beneath 2, strictly?
Met

Item Nc1nc2c(-c3ccc(S(=O)(=O)NC4CCNCC4)c(S(N)(=O)=O)c3-c3nnn[nH]3)cccc2s1 [Example 32] : Efflux ratio beneath 2, strictly?
Met

Item CN(C)CC(F)(F)CNS(=O)(=O)c1ccc(-c2cccc3sc(N)nc23)c(-c2nnn[nH]2)c1S(N)(=O)=O [Example 16] : Efflux ratio beneath 2, strictly?
Not met

Item NS(=O)(=O)c1c(S(=O)(=O)N[C@@H]2CCNC2)ccc(-c2cccc3ncccc23)c1-c1nn[nH]n1 [Example 287] : Efflux ratio beneath 2, strictly?
Met

Item NCCCNS(=O)(=O)c1ccc(-c2cccc3sc(N)nc23)c(-c2nnn[nH]2)c1S(N)(=O)=O.O=C(O)C(F)(F)F [Example 90] : Efflux ratio beneath 2, strictly?
Met
